# Species: Homo sapiens
# TEST_DESCRIPTION: Liver toxicity in human assessed as induction of drug-induced liver injury by measuring severity class index

- COMPOUND: "C[C@]12C=CC(=O)N[C@@H]1CC[C@@H]1[C@@H]2CC[C@]2(C)[C@@H](C(=O)Nc3cc(C(F)(F)F)ccc3C(F)(F)F)CC[C@@H]12 [DUTASTERIDE]"
  DILI_severity_class: 0
- COMPOUND: "COc1ccc2[nH]c([S+]([O-])Cc3ncc(C)c(OC)c3C)nc2c1 (centres undefined)"
  DILI_severity_class: 4
- COMPOUND: "Cn1c(=O)c2c(ncn2C)n(C)c1=O"
  DILI_severity_class: 0
- COMPOUND: "COc1ccc(C(CN(C)C)C2(O)CCCCC2)cc1 (centres undefined)"
  DILI_severity_class: 7
- COMPOUND: "CC(=O)[O-].CC(=O)[O-].[Ca+2] [CALCIUM ACETATE]"
  DILI_severity_class: 0
- COMPOUND: "COc1ccccc1Oc1c(NS(=O)(=O)c2ccc(C(C)(C)C)cc2)nc(-c2ncccn2)nc1OCCO"
  DILI_severity_class: 7
- COMPOUND: "CCOC(=O)[C@H](CCc1ccccc1)N[C@H]1CCc2ccccc2N(CC(=O)O)C1=O"
  DILI_severity_class: 4
- COMPOUND: "CSCC[C@H](N)C(=O)O"
  DILI_severity_class: 0
- COMPOUND: "C#C[C@]1(O)CC[C@H]2[C@@H]3CCC4=CC(=O)CC[C@@H]4[C@H]3CC[C@@]21CC"
  DILI_severity_class: 0

###

# Species: Homo sapiens
# TEST_DESCRIPTION: Liver toxicity in human assessed as induction of drug-induced liver injury by measuring verified drug-induced liver injury concern status

- MOLECULE: "C[C@H](Cc1cc2c(c(C(N)=O)c1)N(CCCO)CC2)NCCOc1ccccc1OCC(F)(F)F [SILODOSIN]"
  DILI_Concern: "Ambiguous-Dili-Concern"
- MOLECULE: "CN1CCN(C(c2ccccc2)c2ccc(Cl)cc2)CC1 (configuration not stated) [CHLORCYCLIZINE]"
  DILI_Concern: "Less-Dili-Concern"
- MOLECULE: "O=C(O)COC(=O)Cc1ccccc1Nc1c(Cl)cccc1Cl [ACECLOFENAC]"
  DILI_Concern: "Less-Dili-Concern"
- MOLECULE: "CO[C@H]1/C=C/O[C@@]2(C)Oc3c(C)c(O)c4c(O)c(c5c(nc6cc(C)ccn65)c4c3C2=O)NC(=O)/C(C)=C\\C=C\\[C@H](C)[C@H](O)[C@@H](C)[C@@H](O)[C@@H](C)[C@H](OC(C)=O)[C@@H]1C [RIFAXIMIN]"
  DILI_Concern: "Ambiguous-Dili-Concern"
- MOLECULE: "CN(C)CCC=C1c2ccccc2CCc2ccccc21 [AMITRIPTYLINE]"
  DILI_Concern: "Less-Dili-Concern"
- MOLECULE: "COc1ccc2c(C(=S)N(C)CC(=O)O)cccc2c1C(F)(F)F [TOLRESTAT]"
  DILI_Concern: "Most-Dili-Concern"
- MOLECULE: "Cc1ccc(/C(=C\\CN2CCCC2)c2ccccn2)cc1 [TRIPROLIDINE]"
  DILI_Concern: "No-Dili-Concern"
- MOLECULE: "O=C1CC[C@@]2(O)[C@H]3Cc4ccc(O)c5c4[C@@]2(CCN3CC2CC2)[C@H]1O5 [NALTREXONE]"
  DILI_Concern: "Ambiguous-Dili-Concern"
- MOLECULE: "C[C@]12CC[C@@H]3c4ccc(OC(=O)N(CCCl)CCCl)cc4CC[C@H]3[C@@H]1CC[C@@H]2O [ESTRAMUSTINE]"
  DILI_Concern: "Most-Dili-Concern"
- MOLECULE: "O=C(O)CCNC(=O)c1ccc(/N=N/c2ccc(O)c(C(=O)O)c2)cc1 [BALSALAZIDE]"
  DILI_Concern: "Ambiguous-Dili-Concern"
- MOLECULE: "O=[N+]([O-])O[C@H]1CO[C@H]2[C@@H]1OC[C@H]2O[N+](=O)[O-] [ISOSORBIDE DINITRATE]"
  DILI_Concern: "No-Dili-Concern"
- MOLECULE: "CC(C)(C)NCC(O)c1cc(O)cc(O)c1 (configuration not stated) [TERBUTALINE]"
  DILI_Concern: "Less-Dili-Concern"
- MOLECULE: "CCCc1nc2c(C)cc(-c3nc4ccccc4n3C)cc2n1Cc1ccc(-c2ccccc2C(=O)O)cc1"
  DILI_Concern: "Less-Dili-Concern"
- MOLECULE: "CCCCNc1ccc(C(=O)OCCOCCOCCOCCOCCOCCOCCOCCOCCOC)cc1 [BENZONATATE]"
  DILI_Concern: "Less-Dili-Concern"
- MOLECULE: "O=C(CCCCCCC(=O)Nc1ccccc1)NO [VORINOSTAT]"
  DILI_Concern: "No-Dili-Concern"
- MOLECULE: "CC(O)(P(=O)(O)O)P(=O)(O)O [ETIDRONIC ACID]"
  DILI_Concern: "No-Dili-Concern"
- MOLECULE: "NS(=O)(=O)c1cc2c(cc1Cl)N=CNS2(=O)=O [CHLOROTHIAZIDE]"
  DILI_Concern: "Less-Dili-Concern"
